Measured Target: T1, P4bHq
T1 chain: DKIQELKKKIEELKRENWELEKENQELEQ
Experiment Description: two-hybrid library CCNG1;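 also: natural log of median RNA to DNA barcode read ratio; higher means stronger binding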
Readout Kind: interaction score
Answer with a number only.

>>> result_value("DKNQELKKENEELERKIWELKKKIQELKQ [P10bHq]")
0.266
>>> result_value("DENQELEKEIEELEREIWELEKKNQELKQ [P11bHq]")
1.65
>>> result_value("DEIQELEKEIEELERKNWELKKKNQELKQ [P3bHq]")
1.75
>>> result_value("DKNQELKKKIEELKRKIWELKKENQELEQ [P12bHq]")
0.195
>>> result_value("DKIQELKKKNEELKRKNWELKKKIQELKQ [P2bHq]")
0.0617
>>> result_value("DKIQELKKKIEELKRENWELEKENQELEQ [P4bHq]")
-0.613

Name the reported interaction score value associated with the binder DEIQELEKENEELERENWELEKEIQELEQ [P1bHq]
-0.52
